run-description: Cmax in CD1 mouse at 5 mg/kg, po
measurement-parameters: in vivo
reported-property: Cmax

>>> reported("O=CNCC(=O)N1C[C@H](NC(=O)c2ccccc2)C[C@H]1C(=O)O")
"89 ng/mL"

* * *

Let's look at some molecules and their measured half-life.
run-description: Half life in CD1 mouse at 1 mg/kg, iv
Assay type: ADME, organism-based
Design: dose 1 mg/kg, route intravenous
measurement-parameters: in vivo
reported-property: half-life (min)

>>> reported("CC(C)NC(=O)[C@@H]1C[C@@H](NC(=O)c2ccccc2)CN1C(=O)CN")
54
>>> reported("CC(=O)NCC(=O)N1C[C@H](NC(=O)c2ccccc2)C[C@H]1C(=O)O")
18
>>> reported("NCC(=O)N1C[C@H](NC(=O)c2ccccc2)C[C@H]1C(=O)NC1CC1")
126

* * *

run-description: Half life in dog at 2.3 mg/kg, iv
Type: ADME, organism-based, Canis lupus familiaris
Set-up: dose 2.3 mg/kg, route intravenous
measurement-parameters: in vivo
reported-property: half-life

>>> reported("O=CNCC(=O)N1C[C@H](NC(=O)c2ccccc2)C[C@H]1C(=O)O")
"1.5 h"

* * *

run-description: Tmax in dog at 7.8 mg/kg, po
Assay type: ADME, organism-based, Canis lupus familiaris
Parameters: dose 7.8 mg/kg, route oral
measurement-parameters: in vivo
reported-property: Tmax (h)

>>> reported("O=CNCC(=O)N1C[C@H](NC(=O)c2ccccc2)C[C@H]1C(=O)O")
1.4

* * *

run-description: Cmax in CD1 mouse at 0.77 mg/kg, po
Type: ADME, organism-based
Parameters: dose 0.77 mg/kg, route oral
measurement-parameters: in vivo
reported-property: Cmax

>>> reported("NCC(=O)N1C[C@H](NC(=O)c2ccccc2)C[C@H]1C(=O)O [DANEGAPTIDE]")
"26 ng/mL"

* * *

run-description: Tmax in dog at 5 mg/kg, po
Assay type: ADME, organism-based, Canis lupus familiaris
Parameters: dose 5 mg/kg, route oral
measurement-parameters: in vivo
reported-property: Tmax (h)

>>> reported("NCC(=O)N1C[C@H](NC(=O)c2ccccc2)C[C@H]1C(=O)O [DANEGAPTIDE]")
1.1

* * *

Let's look at some molecules and their measured remaining at 3 h.
run-description: Stability in rat plasma after 3 hrs
Assay type: ADME, cell-free
measurement-parameters: read-out: Stability
reported-property: remaining at 3 h (%)

>>> reported("CC(C)(C)NC(=O)[C@@H]1C[C@@H](NC(=O)c2ccccc2)CN1C(=O)CN")
99
>>> reported("CC(=O)NCC(=O)N1C[C@H](NC(=O)c2ccccc2)C[C@H]1C(=O)O")
100
>>> reported("NCC(=O)N1C[C@H](NC(=O)c2ccccc2)C[C@H]1C(=O)NC1CC1")
96
>>> reported("CC(C)[C@@H](C)NC(=O)[C@@H]1C[C@@H](NC(=O)c2ccccc2)CN1C(=O)CN")
89
>>> reported("NCC(=O)N1C[C@H](NC(=O)c2ccccc2)C[C@H]1C(=O)O [DANEGAPTIDE]")
93
>>> reported("COC(=O)[C@@H]1C[C@@H](NC(=O)c2ccccc2)CN1C(=O)CNC(=O)OC(C)(C)C")
0
>>> reported("NCC(=O)N1C[C@H](NC(=O)c2ccccc2)C[C@H]1C(N)=O")
27
>>> reported("NCC(=O)N1C[C@H](NC(=O)c2ccccc2)C[C@H]1C(=O)N[C@@H]1CCOC1")
100
>>> reported("O=CNCC(=O)N1C[C@H](NC(=O)c2ccccc2)C[C@H]1C(=O)O")
100

Data provenance: ChEMBL document CHEMBL1153486
